Test system: U937 cells
protocol description: Counter screen: cell viability without TSQ cocktail (off target effect)
Format: cell-based
run parameters: U937 without TSQ cocktail, compound at 5 uM

compound string: CN(C(=O)Nc1ccc(OC(F)(F)F)cc1)c1ccc(N(C)c2ccnc(Nc3cccc(S(N)(=O)=O)c3)n2)cc1
study system: U937 cells
value unit: %
readout relation: =
Off target effect (% cell death) at 5 uM: 36

compound string: CN(c1ccc(CC(=O)Nc2ccc(OC(F)(F)F)cc2)cc1)c1ccnc(Nc2cccc(S(N)(=O)=O)c2)n1
study system: U937 cells
value unit: %
readout relation: <
Off target effect (% cell death) at 5 uM: 20

compound string: Cc1ccc(Nc2nccc(N(C)c3ccc(NC(=O)Nc4ccc(OC(F)(F)F)cc4)cc3)n2)cc1S(N)(=O)=O
study system: U937 cells
value unit: %
readout relation: =
Off target effect (% cell death) at 5 uM: 51

compound string: CN(c1ccc(NC(=O)Nc2ccc(OC(F)(F)F)cc2)cc1)c1ccnc(Nc2cccc(CS(C)(=O)=O)c2)n1
study system: U937 cells
value unit: %
readout relation: =
Off target effect (% cell death) at 5 uM: 33

compound string: CN(c1ccc(NC(=O)Nc2ccccc2)cc1)c1ccnc(Nc2cccc(S(N)(=O)=O)c2)n1
study system: U937 cells
value unit: %
readout relation: =
Off target effect (% cell death) at 5 uM: 32

compound string: COCCNS(=O)(=O)c1cccc(Nc2nccc(N(C)c3ccc(NC(=O)Nc4ccc(OC(F)(F)F)cc4)cc3)n2)c1
study system: U937 cells
value unit: %
readout relation: =
Off target effect (% cell death) at 5 uM: 22

compound string: CN(c1ccc(NC(=O)Nc2ccc(OC(F)(F)F)cc2)cc1)c1ccnc(Nc2cccc(CS(N)(=O)=O)c2)n1
study system: U937 cells
value unit: %
readout relation: =
Off target effect (% cell death) at 5 uM: 14

compound string: CN(c1ccc(NC(=O)Nc2ccc(OC(F)(F)F)cc2)cc1)c1ccnc(Nc2ccc(F)c(S(N)(=O)=O)c2)n1
study system: U937 cells
value unit: %
readout relation: =
Off target effect (% cell death) at 5 uM: 94

====

System: U937 cells
protocol description: Counter screen: cell viability without TSQ cocktail (off target effect)
Type: cell-based
run parameters: U937 without TSQ cocktail, compound at 500 nM
Experimental: In parallel, all compounds are tested for their ability to affect cell viability. The same U937 cells are treated with compound in DMSO without the TSQ cocktail. This counter screen enables evaluation of off-target effects. In this case gain, cell viability is measured by flow cytometry after PI staining.
Entries and their measured Off target effect (% cell death) at 500 nM follow.
measurement name: Off target effect (% cell death) at 500 nM

compound string: CN(c1ccc(NC(=O)Nc2ccc(OC(F)(F)F)cc2)cc1)c1ccnc(Nc2cccc(S(=O)(=O)N(C)C)c2)n1
endpoint value: <20%

compound string: Cc1ccc(Nc2nccc(N(C)c3ccc(NC(=O)Nc4ccc(OC(F)(F)F)cc4)cc3)n2)cc1S(N)(=O)=O
endpoint value: <20%

compound string: CCN(c1ccc(NC(=O)Nc2ccc(OC(F)(F)F)cc2)cc1)c1ccnc(Nc2cccc(S(N)(=O)=O)c2)n1
endpoint value: <20%

compound string: CN(c1ccc(NC(=O)Nc2ccc(OC(F)(F)F)cc2)cc1)c1ccnc(Nc2cccc(S(N)(=O)=O)c2)n1
endpoint value: <20%

compound string: NS(=O)(=O)c1cccc(Nc2nccc(Nc3ccc(NC(=O)Nc4ccc(OC(F)(F)F)cc4)cc3)n2)c1
endpoint value: <20%

compound string: CNS(=O)(=O)c1cccc(Nc2nccc(N(C)c3ccc(NC(=O)Nc4ccc(OC(F)(F)F)cc4)cc3)n2)c1
endpoint value: <20%

compound string: CN(c1ccc(NC(=O)Cc2ccc(OC(F)(F)F)cc2)cc1)c1ccnc(Nc2cccc(S(N)(=O)=O)c2)n1
endpoint value: <20%

compound string: Cc1ccc(F)c(NC(=O)Nc2ccc(N(C)c3ccnc(Nc4cccc(S(N)(=O)=O)c4)n3)cc2)c1
endpoint value: <20%

compound string: CN(c1ccc(NC(=O)Nc2ccc(OC(F)(F)F)cc2)cc1)c1ccnc(Nc2cccc(S(N)(=O)=O)c2)c1
endpoint value: <20%

compound string: CN(c1ccc(NC(=O)C(C)(C)c2ccc(OC(F)(F)F)cc2)cc1)c1ccnc(Nc2cccc(S(N)(=O)=O)c2)n1
endpoint value: <20%

compound string: CN(c1ccc(NC(=O)Nc2ccc(OC(F)(F)F)cc2)cc1)c1ccnc(Nc2cccc(S(C)(=O)=O)c2)n1
endpoint value: <20%

compound string: CN(c1cccc(NC(=O)Nc2ccc(OC(F)(F)F)cc2)c1)c1ccnc(Nc2cccc(S(N)(=O)=O)c2)n1
endpoint value: <20%
